Reported Anti-CD28 Fab signal in the presence of CD28 by item:
measured-on: T1, Anti-CD28 Fab (SEQ ID NOs: 202, 203)
T1 construct: biotinylated and captured on neutravidin coated plates in the phage ELISA
experiment-notes: phage ELISA on captured Fab, wells pre-incubated with CD28 antigen (competitor: CD28);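 further: bound clonal phage detected with an HRP-linked anti-M13 antibody, compared against wells that received blocking buffer alone without CD28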
outcome-measure: Anti-CD28 Fab signal in the presence of CD28

>>> numeric_value("YCDGHSAEYMMKCL [Phage-192]")
0.08
>>> numeric_value("YCDGHSPIYMSKCL [Phage-260]")
0.09
>>> numeric_value("YCAGHSPEYMGKCM [Phage-209]")
0.06
>>> numeric_value("YCDGHAPQYMLKCL [Phage-194]")
0.09
>>> numeric_value("YCEGHSDEYMLKCL [Phage-223]")
0.07
>>> numeric_value("YCAGHSPEFMEKCL [Phage-297]")
0.06
>>> numeric_value("YCSGHLPEYMEKCL [Phage-210]")
0.09
>>> numeric_value("YCAGHIEEYMWKCL [Phage-230]")
0.06
>>> numeric_value("YCDGHLGIYMTKCL [Phage-268]")
0.08
>>> numeric_value("YCDGHASEYMWKCL [Phage-286]")
0.06
>>> numeric_value("YCEGHSAEYMNKCL [Phage-226]")
0.07
>>> numeric_value("YCEGHSPQYMSKCL [Phage-241]")
0.07
>>> numeric_value("YCQGHLPQYIAKCL [Phage-205]")
0.08
>>> numeric_value("YCDGHLWEYMDKCL [Phage-269]")
0.06
>>> numeric_value("YCDGHLPIYMTQCL [Phage-271]")
0.08
>>> numeric_value("YCDGHLEEYMAKCL [Phage-198]")
0.09
>>> numeric_value("YCEGHAEEYMQKCL [Phage-163]")
0.06
>>> numeric_value("YCMGHQPEYMQKCL [Phage-291]")
0.08
>>> numeric_value("YCDGHSPDYIWKCL [Phage-289]")
0.1
>>> numeric_value("YCEGHRAEYMEKCL [Phage-288]")
0.06
>>> numeric_value("YCEGHAIQYMSKCL [Phage-239]")
0.06
>>> numeric_value("YCEGHAPQYIQKCL [Phage-220]")
0.07
>>> numeric_value("YCDGHLPVYMAKCL [Phage-195]")
0.09
>>> numeric_value("YCEGHADIYMQKCL [Phage-225]")
0.07
>>> numeric_value("YCMGHLPQYMEKCL [Phage-212]")
0.08
>>> numeric_value("YCDGHAPDYMLKCL [Phage-152]")
0.09
